# System: Saccharomyces cerevisiae
# assayText: protein stability index of tFT-peptide fusion (C-terminal peptide) (PSI (0-1 scale)); higher = more stable (slower turnover)
# experimentalContext: genetic background: wild type; temperature: 30 C
measuredParameter: protein stability index
One number for each entry.

Worked cases, protein stability index given:
DTLPSYPVHCRP: 0.71
GVSVSSSFLNGC: 0.669
LLHVPIVFPRLI: 0.62

// batch mode: one protein stability index value per listed entry
1. VNPAFRTSICHH
2. GRLPPYLSRRLR
3. PAPPPVRPRSLP
4. SDDTIQNQICPG
5. APPPPPDHPFPP
6. RRVPVVSRSGGG
7. GGRRRAWLGGRW

**A:**
1. 0.584
2. 0.704
3. 0.627
4. 0.66
5. 0.691
6. 0.697
7. 0.746

* * *

# Test system: Saccharomyces cerevisiae
# assayText: protein stability index of tFT-peptide fusion (C-terminal peptide) (PSI (0-1 scale)); higher = more stable (slower turnover)
# experimentalContext: genetic background: wild type; temperature: 30 C
measuredParameter: protein stability index
Give bare numbers.

YGFLFRFLSPNP: 0.679

For the 6 sequences below, give their protein stability index values.
1. DGQSAKEPVGFR
2. PVFDSRDRTFSH
3. LSLLPPPPPPSP
4. EEGGTRGASAVV
5. VVSIIQDITLIS
6. GGVRGERSDLRT

**A:**
[0.681, 0.713, 0.688, 0.713, 0.709, 0.712]

* * *

Provide the recorded protein stability index for the entries that follow.
# Test system: Saccharomyces cerevisiae
# assayText: protein stability index of tFT-peptide fusion in deletion strain of DAS1 (PSI (0-1 scale)); higher = more stable (slower turnover)
Give bare numbers.

KKHKKGQKQKIM: 0.609
KKHKKGQKQKLN: 0.602
LVVYLSCVAGIN: 0.154
LVVYLSCVANIN: 0.0788
RLIQPLKVQFLN: 0.805

For each entry beneath this line, provide reported protein stability index.
1. VRGAVGGWKLVG
2. CTSCYYKFRTNN
3. RLIQPCPVQFLN
4. PSLAVSFWRVVG

**A:**
1: 0.679; 2: 0.639; 3: 0.612; 4: 0.673

Hi, could you look up protein stability index for each item in my list?
1. PSLGASFWRVVG
2. PSLAAVFWRVVG
3. FSMRWTFRYWVNM
4. PSLAASFWRVVV
5. LVVYLSEVACIN
6. FSMRWIFRYWVN

**A:**
1: 0.696; 2: 0.665; 3: 0.543; 4: 0.687; 5: 0.286; 6: 0.535

For every item below, please supply its protein stability index.
1. FSMRWTFRPWVN
2. KKHKKGHKQKIN
3. ARWRVGYWRGAS

**A:**
1. 0.6
2. 0.592
3. 0.691

Please give protein stability index, item by item, for the list that follows.
1. FSERWTFRYWVN
2. PSLAASFWRVVGC
3. FSMRWMFRYWVN
4. AIWRVGLWRGAS
5. ARWRVGFWRGAS

**A:**
[0.604, 0.685, 0.528, 0.69, 0.666]

* * *

# Test system: Saccharomyces cerevisiae
# assayText: protein stability index of tFT-peptide fusion (C-terminal peptide) (PSI (0-1 scale)); higher = more stable (slower turnover)
# experimentalContext: genetic background: wild type; temperature: 30 C
measuredParameter: protein stability index
Answers are plain numbers.

GGKKRGVRMCGG: 0.655

Required: protein stability index, one value per sequence below.
1. TRTTTQKNNATT
2. EARLGVGRCGTG
3. PPSSPPPTIPAH
4. VDSLETDVLKYL
5. PPGPTSSPTKTH
6. ESNRHSHVVGPA

**A:**
0.717
0.67
0.642
0.665
0.729
0.683

Give me protein stability index for each of these sequences, listed below.
1. KREQGPRPRACR
2. ITRLSPPSSVRL
3. VSPSPIPSMPVI
4. FNGANEDCDLGV
5. RNKKKKNKNEKE
6. HLPSSRHNPLQN
7. LLPPPPSPPTPS

**A:**
1. 0.617
2. 0.7
3. 0.71
4. 0.665
5. 0.705
6. 0.695
7. 0.686

Respectfully, I request protein stability index for each entry included below.
1. VGVSCLVFFGVV
2. VLVSVSVPLRGR
3. APRTRPSPTLGT
4. NKRLKNKIKRIK

**A:**
[0.549, 0.78, 0.724, 0.651]

* * *

# System: Saccharomyces cerevisiae
# assayText: protein stability index of tFT-peptide fusion (C-terminal peptide) (PSI (0-1 scale)); higher = more stable (slower turnover)
# experimentalContext: genetic background: wild type; temperature: 30 C
measuredParameter: protein stability index
Numbers only.

Sample answers from the record:
PPLPPPPPPVPA: 0.681
VVDWRRAAKREG: 0.685
IGEAWERGQEAK: 0.679
GAWFSWLGEVVG: 0.701
FPSASPPFLPTP: 0.705

Quick batch: protein stability index for everything below.
1. AVGQAGITSLVL
2. LAYCGSTYVSRH

**A:**
[0.699, 0.699]

Please fill in: protein stability index reported for AQSRTCPMPLPA = 0.719

* * *

Provide the reported protein stability index of each item.
# Test system: Saccharomyces cerevisiae
# assayText: protein stability index of tFT-peptide fusion (C-terminal peptide) (PSI (0-1 scale)); higher = more stable (slower turnover)
# experimentalContext: genetic background: wild type; temperature: 30 C
Give bare numbers.

Recorded protein stability index, per entry:
CYPPTRYILGYF: 0.72
LLPPFPPSSPAF: 0.708
LIRGVVVGLDGD: 0.685
CDRAYSPLSRHN: 0.685
LVCKRQGQANFI: 0.689
EKKKEKKGKKRE: 0.683
PFSPPLTPTFFP: 0.705
PPLPLTAPHLCH: 0.705
GGCGWRGDGGGA: 0.679
ELGGRGPGGWVG: 0.715

Give measured protein stability index for every item shown.
1. VSPLPSPVPLLP
2. WGPPPPYSPFSL
3. DDSHVLILKFNW
4. SAPLRHTSSSPS
5. ALFEDWRIGVFS

**A:**
1. 0.69
2. 0.713
3. 0.691
4. 0.697
5. 0.71

Hey, quick one: what's protein stability index for each of these?
1. KQQTPVQNKDLR
2. RGRLRFGNTTGI
3. SSEKKKEDGGLG
4. KGRTEKRGEKRT
5. HVHSLAFPPPAT

**A:**
1. 0.714
2. 0.691
3. 0.687
4. 0.717
5. 0.695

protein stability index measured on GKCLEGCCLVWG = 0.686

* * *

Exercise: state measured protein stability index for each of the sequences provided.
# Tested on: Saccharomyces cerevisiae
# assayText: protein stability index of tFT-peptide fusion (C-terminal peptide) (PSI (0-1 scale)); higher = more stable (slower turnover)
# experimentalContext: genetic background: wild type; temperature: 30 C
Answers are plain numbers.

KHQKNRLRDLGS: 0.708
EVEGGLSFSARG: 0.706
PHLHTPDDARPL: 0.698
PVPCNYSPVIHL: 0.688

Below are some sequences; for each one, tell me its protein stability index.
1. PPMSYYLFPCSR
2. ASYGHCTTCRRT

**A:**
[0.699, 0.717]

WSKEQRRGGCGQ on Saccharomyces cerevisiae gives protein stability index = 0.714

* * *

# Tested on: Saccharomyces cerevisiae
# assayText: protein stability index of tFT-peptide fusion (C-terminal peptide) (PSI (0-1 scale)); higher = more stable (slower turnover)
# experimentalContext: genetic background: wild type; temperature: 30 C
# cutoff 0.7 applies to protein stability index; >= gives YES, < gives NO

PPASPPAPPTFG: NO

**Q:** Could you tell me if the measured protein stability index of DTYSEQRIVVTK reaches 0.7 or more?
**A:** NO

**Q:** Please indicate if the recorded protein stability index for RKSCKRNERIRK meets or exceeds 0.7.
**A:** NO

**Q:** Does the reported protein stability index for SEPPFSFLNVSP fall at or above the 0.7 mark?
**A:** NO

* * *

# Tested on: Saccharomyces cerevisiae
# assayText: protein stability index of tFT-peptide fusion (C-terminal peptide) (PSI (0-1 scale)); higher = more stable (slower turnover)
# experimentalContext: genetic background: wild type; temperature: 30 C
Use protein stability index to assign classes; range list: class A (below 0.6), class B (0.6 to below 0.7), class C (0.7 or more)

Illustrative cases are given below, each with its answer.
RVGSSLIVVYCV: class A
VRMVIFSSVYLT: class A
PLSPTNLSRLLS: class A
VGSAENQHTGRM: class B
TMSGVTRCVLVL: class A
WRQRLKTNNITT: class C

**Q:** Given CLRFPALPRRHP , name the class its protein stability index places it in.
**A:** class C

**Q:** Form: Item = LLLPIIPRKLDL ; Class = ?
**A:** class B

**Q:** In plain terms, what class is FVVVLSPLVILQ ?
**A:** class A

**Q:** Note: place this sequence into its band. Item: TYPMGVVLVESG
**A:** class A

**Q:** Categorize the following entry: AGALFRLPSVFD
**A:** class C

**Q:** Returns: class label. Input: APPPPPSRLFPP
**A:** class B

**Q:** Form: Item = PPAPSPLPPPPF ; Class = ?
**A:** class C

**Q:** Sort into band: SLPSLLFLISLP
**A:** class A

**Q:** Just checking, what class would you give PLSPLPPPPPPP here?
**A:** class B

Data provenance is the supplement of paper PMC10724198.
